The entries below come with measured amyloid nucleation score values attached.
Experiment: amyloid nucleation score (Sup35N fusion, yeast selection) (log enrichment); library NNK1; higher = more nucleation; inactive = no reads after selection;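 note: zero at mode of non-aggregating sequences after 7 days selection at 30°C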
result type: amyloid nucleation score

>>> experimental_value("HLSLVNFCMSVSLESWYEWM")
0.819
>>> experimental_value("TYANGGALALAIVAVKC")
-0.398
>>> experimental_value("LIRNKIRR")
-1.12
>>> experimental_value("VIRRLRSTYMSDMLLEGGLA")
0.864
>>> experimental_value("SRSRRANYGLCDIRYYNSFE")
0.862
>>> experimental_value("VVCVLRVVDVMFASRS")
0.694
>>> experimental_value("ENHAKLHDICGASGLSREGG")
0.592
>>> experimental_value("INSQSTATN")
0.593
>>> experimental_value("WIHIVYGFWSWVWGI")
-0.327
>>> experimental_value("KSYLLGDGTFNSCTW")
0.107
>>> experimental_value("DYVHFMCHGLGR")
-0.185
>>> experimental_value("AIYVNGCVCCISYLVPILMS")
3.61
>>> experimental_value("ASYGIIVSSLFFNGRGCHWS")
3.81
>>> experimental_value("ICITYL")
2.56
>>> experimental_value("VEDAIDACKFNCDSIDMTTD")
-0.206

----------
Test: amyloid nucleation score (Sup35N fusion, yeast selection) (log enrichment); library NNK1; higher = more nucleation; inactive = no reads after selection
Parameter threshold = 0.5. Response is yes when amyloid nucleation score meets or exceeds it, else no.

>>> label_value("CVTDIRAWFKVGLCNSDVLQ")
"yes"
>>> label_value("VGELYFIVWMDLLLVGWDGR")
"yes"
>>> label_value("ETACLYLLFMSKACMRMMNS")
"no"
>>> label_value("YARVGKRNGSRNPYFINWGR")
"no"
>>> label_value("ICVCKDVCGLYRCLLGTGGS")
"yes"
>>> label_value("YVRRSCSSRESYSCNCLYVY")
"yes"
>>> label_value("ADSFSI")
"no"
>>> label_value("YCGSTWASVWGPIICPRYRA")
"no"
>>> label_value("MYFVRVSSDA")
"no"
>>> label_value("NFARDLKRHVRMG")
"no"
>>> label_value("MMAFCS")
"no"
>>> label_value("CKDCYLITGVVINYPSRPLW")
"yes"
>>> label_value("FSKAMNFRDRTSSQSQ")
"no"
>>> label_value("ANDFYVMYAEWKDCRNRVLF")
"yes"
>>> label_value("LCFVPGS")
"yes"
>>> label_value("ECQCFDQICEQLNSYRDQFS")
"no"
>>> label_value("YSDPYAKWNDQR")
"yes"

----------
The entries below come with measured amyloid nucleation score values attached.
Test: amyloid nucleation score (Sup35N fusion, yeast selection) (log enrichment); library NNK2; higher = more nucleation; inactive = no reads after selection
result type: amyloid nucleation score

>>> experimental_value("LVQRWGWSKPLIAGI")
-0.271
>>> experimental_value("VYMGSDL")
6.07
>>> experimental_value("EEYCSFKLVHMGRGPAGHSI")
2.58
>>> experimental_value("QLTRTVIYCLLFSAFHFYIS")
2.39
>>> experimental_value("VGNIGSSTC")
-0.159
>>> experimental_value("GSWHDWHRCRSLRYDQTNTS")
-0.185
>>> experimental_value("KVMNNIL")
-0.093
>>> experimental_value("GKFCIFASMADLMEW")
-0.491
>>> experimental_value("VKFTVFTQGQALIVPSGLL")
5.32
>>> experimental_value("RCEFSACMCGVCGAYKCMRF")
5.3
>>> experimental_value("FKQLIMGYS")
3.24
>>> experimental_value("YNTQVCEVVMWGQHPTTLSS")
-0.418
>>> experimental_value("FQMYTISLRRLVNNKSYARV")
0.319
>>> experimental_value("LCVEELMTCVCWVRS")
0.47
>>> experimental_value("SYVVCSVIGYYDYLRSRPSC")
9.63
>>> experimental_value("FWQVCPLYRSSCIGSGCCIK")
1.78
>>> experimental_value("SVPRYRSLMKRCH")
0.189
>>> experimental_value("SYVQMTDT")
-0.146
>>> experimental_value("WTGSFRMSRQHMWNSTSFQM")
-0.215
>>> experimental_value("KSCFWLRDI")
-0.457
>>> experimental_value("RLLTSHD")
4.12
>>> experimental_value("YTFYLNF")
5.27
>>> experimental_value("NATCPRHCRDHQGSYYRHCL")
0.499
>>> experimental_value("AANRPGTSC")
0.767
>>> experimental_value("YETCSFKNPTFFPRNLYKMW")
-0.103
>>> experimental_value("CASWLVCMFRGMFRVLNTSG")
2.82
>>> experimental_value("TLTRGSISSIVDASWNMEKT")
-0.061
>>> experimental_value("VGFLYACYFRGTAVNETGYT")
1.15
>>> experimental_value("EGVVSVRVFKYTGSYG")
0.599
>>> experimental_value("TCSGWTWRQGLLVLSCRMIL")
0.287
>>> experimental_value("VNLLFVVLCTMGSVSFKNSC")
7.77
>>> experimental_value("CIVAFEFLYWCRRIAFNPGG")
-0.475
